Reported values of melting point for individual entries

Query string: Indicate the recorded melting point value for this molecule: CCN(CC)c1ccc2cc(-n3cc(CNC(=O)/C=C/c4ccc(OC)c(OC)c4)nn3)c(=O)oc2c1
Result string: 197 to 198.4 °C

Query string: Indicate the recorded melting point value for this molecule: COc1ccc(/C=C/C(=O)NCc2cn(Cc3ccc(Br)cc3)nn2)cc1
Result string: 193.1 to 194.7 °C

Query string: Indicate the recorded melting point value for this molecule: COc1ccc(Cn2cc(CNC(=O)/C=C/c3ccc(OC)c(OC)c3)nn2)cc1
Result string: 171.2 to 172 °C

Query string: Indicate the recorded melting point value for this molecule: COc1ccc(/C=C/C(=O)NCc2cn(Cc3ccc(C)cc3)nn2)cc1
Result string: 166 to 167.2 °C

Query string: Indicate the recorded melting point value for this molecule: COc1ccc(/C=C/C(=O)NCc2cn(Cc3ccc([N+](=O)[O-])cc3)nn2)cc1
Result string: 192.2 to 193.4 °C

Query string: Indicate the recorded melting point value for this molecule: COc1ccc(/C=C/C(=O)NCc2cn(Cc3ccc([N+](=O)[O-])cc3)nn2)cc1OC
Result string: 217.6 to 218.9 °C

Query string: Indicate the recorded melting point value for this molecule: COc1ccc(/C=C/C(=O)NCc2cn(Cc3ccc(I)cc3)nn2)cc1
Result string: 200.6 to 202 °C

Query string: Indicate the recorded melting point value for this molecule: COc1ccc(/C=C/C(=O)NCc2cn(Cc3ccc(C(F)(F)F)cc3)nn2)cc1
Result string: 220.5 to 221.9 °C

Query string: Indicate the recorded melting point value for this molecule: COc1ccc(/C=C/C(=O)NCc2cn(Cc3ccc(OC)cc3)nn2)cc1
Result string: 169 to 170.2 °C

Query string: Indicate the recorded melting point value for this molecule: COc1ccc(/C=C/C(=O)NCc2cn(Cc3ccc(C(F)(F)F)cc3)nn2)cc1OC
Result string: 196.4 to 197.6 °C

Query string: Indicate the recorded melting point value for this molecule: COc1ccc(/C=C/C(=O)NCc2cn(Cc3ccc(F)cc3)nn2)cc1OC
Result string: 174.8 to 175.5 °C

Query string: Indicate the recorded melting point value for this molecule: COc1ccc(/C=C/C(=O)NCc2cn(Cc3ccc(C(C)C)cc3)nn2)cc1
Result string: 187.4 to 188.3 °C

Query string: Indicate the recorded melting point value for this molecule: COc1ccc(/C=C/C(=O)NCc2cn(Cc3ccc(F)c(F)c3)nn2)cc1OC
Result string: 166 to 167.2 °C

Query string: Indicate the recorded melting point value for this molecule: CCN(CC)c1ccc2cc(-n3cc(CNC(=O)/C=C/c4ccc(OC)cc4)nn3)c(=O)oc2c1
Result string: 191.3 to 192.7 °C

Query string: Indicate the recorded melting point value for this molecule: COc1ccc(/C=C/C(=O)NCc2cn(Cc3ccc(I)cc3)nn2)cc1OC
Result string: 194 to 194.9 °C

Query string: Indicate the recorded melting point value for this molecule: COc1ccc(/C=C/C(=O)NCc2cn(Cc3ccc(OC(F)(F)F)cc3)nn2)cc1OC
Result string: 177.4 to 178.6 °C

Query string: Indicate the recorded melting point value for this molecule: COc1ccc(/C=C/C(=O)NCc2cn(Cc3ccc(C(C)C)cc3)nn2)cc1OC
Result string: 175.5 to 176.4 °C

Query string: Indicate the recorded melting point value for this molecule: COc1ccc(/C=C/C(=O)NCc2cn(Cc3ccc(Br)cc3)nn2)cc1OC
Result string: 198.2 to 199.6 °C

Query string: Indicate the recorded melting point value for this molecule: COc1ccc(/C=C/C(=O)NCc2cn(Cc3ccc(F)cc3)nn2)cc1
Result string: 178.6 to 180 °C

---

Reported values of melting point for individual entries

COc1ccc(/C=C/C(=O)NCc2cn(Cc3ccc(C)cc3)nn2)cc1OC : 191.6 to 192.2 °C
COc1ccc(/C=C/C(=O)NCc2cn(Cc3ccc(OC(F)(F)F)cc3)nn2)cc1 : 191.4 to 193 °C
COc1ccc(/C=C/C(=O)NCc2cn(Cc3ccc(F)c(F)c3)nn2)cc1 : 166.3 to 167.7 °C
COc1ccc(/C=C/C(=O)NCc2cn(Cc3ccc(Cl)cc3)nn2)cc1 : 185.7 to 186.5 °C

We next turn to a different compound, shown below.
Query string: Indicate the recorded melting point value for this compound: COc1ccc(/C=C/C(=O)NCc2cn(Cc3ccc(Cl)cc3)nn2)cc1OC
Result string: 189.6 to 190.8 °C
